Origin of values: paper PMC5278714

# ASSAY_NAME: Multiple-ascending-dose phase 1 study: plasma and urine pharmacokinetics
# Assay type: in vivo, humans
# MEASUREMENT_CONTEXT: human, plasma, iv, following the second or third dose
# Procedure: The single-ascending-dose and multiple-ascending-dose studies were phase 1, randomized, double-blind, dose-escalation, placebo-controlled, single-center safety trials of CD101 IV in healthy adults (ClinicalTrials.gov identifiers: NCT02516904 for the single-ascending-dose study; NCT02551549 for the multiple-ascending-dose study). […] Pharmacokinetics were assessed in the PK analysis population and included Cmax, AUC, Cl, elimination rate constant (λz), and terminal t1/2. […]
Numbered stars: 1 amine (or outer) side, 2 acyl side, 3 side chain; on linkers, the order of the positions; unused ones are H or OH. Bridge positions count the residues as written; N and C are the ends. Square brackets hold non-standard residues; d marks the D form. Peptide text beside a SMILES is read from it. * marks the point of attachment. Orn(4R-OH,5R-OCH2CH2NMe3+) = C[N+](C)(C)CCO[C@@H](N[*:3])[C@H](O)C[C@H](N[*:1])C(=O)[*:2]; pTerphenylCO(4''-OnC5H11) = CCCCCOc1ccc(-c2ccc(-c3ccc(C(=O)*)cc3)cc2)cc1; hTyr(3S-OH,4S-OH) = N[C@H](C(=O)O)[C@H](O)[C@@H](O)c1ccc(O)cc1; Pro(3S-OH,4S-Me) = C[C@H]1CN[C@H](C(=O)O)[C@H]1O; Hyp = O=C(O)[C@@H]1C[C@@H](O)CN1

COMPOUND	half-life
CCCCCOc1ccc(-c2ccc(-c3ccc(C(=O)N[C@H]4C[C@@H](O)[C@@H](OCC[N+](C)(C)C)NC(=O)[C@@H]5[C@@H](O)[C@@H](C)CN5C(=O)[C@H]([C@@H](C)O)NC(=O)[C@H]([C@H](O)[C@@H](O)c5ccc(O)cc5)NC(=O)[C@@H]5C[C@@H](O)CN5C(=O)[C@H]([C@@H](C)O)NC4=O)cc3)cc2)cc1 [CD101] ({pTerphenylCO(4''-OnC5H11)}-[Orn(4R-OH,5R-OCH2CH2NMe3+)]T[Hyp][hTyr(3S-OH,4S-OH)]T[Pro(3S-OH,4S-Me)]; lactam 1-C)	~6.25 days
